Record set: IC50 | Sodium-dependent noradrenaline transporter (Homo sapiens) | literature, multiple sources.
result type: IC50 (nM)

The following compounds have reported results that may help.
O=C(C1CCOCC1)N(Cc1cccc(Cl)c1Cl)[C@H]1CCNC1; 300
CNC[C@@H](O)[C@H](c1cccc(F)c1)n1ccc2c(C)cccc21; 15

A: O=C(C1CC1)N(Cc1ccc(Cl)cc1Cl)[C@H]1CCNC1
B: C=CCN(CC=C)C(=O)[C@@]1(c2ccc3c(c2)CCO3)C[C@H]1CN
Decide: A or B , by lowest recorded IC50. Kindly give the label for the entry you pick.
B
(B: 4.5 nM, A: 25 nM)

---

Record set: pIC50 | Sodium-dependent noradrenaline transporter (Homo sapiens, UniProt P23975) | literature, multiple sources.
pIC50: −log10 of the molar value.
result type: pIC50

The following molecules have reported results that may help.
O=C1NCC(c2ccc(Cl)c(Cl)c2)C1c1ccc(Cl)cc1 (stereo not given); 5.69
C=CCN(CC)C(=O)[C@@]1(c2ccc3c(c2)OCO3)C[C@H]1CN; 8.15
CNCCCC1Cc2ccccc2N(c2ccccc2F)S1(=O)=O (single isomer, unassigned; enantiomer I); 7.26
CNCC[C@H](c1ccccc1)N1C(=O)C2(CCCCC2)c2ccccc21; 7.28

a: OC1([C@@H](CN2CCNCC2)c2cccc(Cl)c2)CCCCC1
b: CNCC[C@H](c1ccccc1)n1c(=O)n(C2CC2)c2ccccc21
Decide: a or b , by lowest recorded pIC50. Kindly give the label for the entry you pick.
a

I: C=CCN(CC=C)C(=O)[C@@]1(c2ccc3c(c2)OCO3)C[C@H]1CN
II: OC1([C@H](CN2CCNCC2)c2cccc(OC(F)(F)F)c2)CCCCC1
III: CC(C)(C)CC(=O)N(Cc1ccc(Cl)cc1Cl)[C@H]1CCNC1
Given 3 molecules, produce a descending ranking by pIC50. In your reply, arrange the labels in the requested order.
I, III, II
(I: 8.15, III: 7.41, II: 6.85)

I: C=C(F)CN(CC)C(=O)[C@@]1(c2ccc3c(c2)OCCO3)C[C@H]1CN
II: Fc1cc(C(CC2CNC2)Oc2ccccc2)ccc1Cl (stereo not given)
Decide: I or II , by lowest recorded pIC50. Kindly give the label for the entry you pick.
II

---

Record set: IC50 | UniProtKB P23975 | literature, multiple sources.
result type: IC50 (nM)

O=C(c1ccccc1)N(Cc1ccc(Cl)cc1Cl)[C@H]1CCNC1; 94
CC#CCN(CCC)C(=O)[C@@]1(c2ccc3c(c2)CCO3)C[C@H]1CN; 80
CNC[C@@H](O)[C@H](c1ccc(C)cc1)n1ccc2ccccc21; 117
CNCCCC1Cc2cc(F)ccc2N(c2ccccc2F)S1(=O)=O (single isomer, unassigned; enantiomer I); 93
CCN(CC)C(=O)[C@@]1(c2cccc(F)c2)C[C@H]1CN; 73

P: CNCCCC1Cc2cc(F)ccc2N(c2c(F)cccc2F)S1(=O)=O.Cl (single isomer, unassigned; enantiomer II)
Q: C#CCN(C(=O)[C@@]1(c2ccc3c(c2)OCCO3)C[C@H]1CN)C1CC1
R: CNCCC(c1ccccc1)n1ccc2ccccc21 (stereo not given)
S: COc1cccc(C(CN2CCN(C)CC2)C2(O)CCCCC2)c1 (stereo not given)
T: CN(C)CC1CC1c1ccc2ccccc2c1 (single isomer, unassigned; (+))
Arrange items by their IC50 values in increasing order. In your reply, arrange the labels in the requested order.
Q, P, R, S, T
(Q: 4.4 nM, P: 27 nM, R: 47 nM, S: 600 nM, T: 8700 nM)

a: CNCC[C@H](c1ccccc1)n1ccc2ccccc21
b: CNC[C@H](O)[C@H](c1ccccc1)n1ccc2cc(F)ccc21 (racemic)
Just curious, which one has the larger IC50 reading, a or b ? Kindly give the label for the entry you pick.
b

I: CNCC[C@H](c1cccc(F)c1)n1ccc2ccccc21
II: CNCCCC1Cc2ccccc2N(c2ccccc2)S1(=O)=O.Cl (single isomer, unassigned; enantiomer II)
Decide: I or II , by lowest recorded IC50. Kindly give the label for the entry you pick.
II
(II: 12 nM, I: 91 nM)

P: CCOC(=O)CCc1ccc(OC[C@H](O)CNC(C)(C)Cc2ccc3ccccc3c2)c(C#N)c1.Cl
Q: CNCC[C@H](c1ccccc1)n1c(=O)n(-c2ccccc2F)c2cccc(F)c21
R: NC[C@@H]1C[C@@]1(C(=O)N1CCc2ccccc21)c1ccc2c(c1)OCO2
S: CNCC[C@H](c1ccccc1)n1c(=O)n(-c2ccccc2)c2ccccc21
T: CN(C)CC1CC1c1cccc2cc(C#N)ccc12 (stereo not given)
Given 5 compounds, produce a descending ranking by IC50. In your reply, arrange the labels in the requested order.
T, P, S, Q, R

I: CCN(CC)C(=O)[C@@]1(c2ccc3occc3c2)C[C@H]1CN
II: OC1([C@H](CN2CCNCC2)c2cccc(Cl)c2)CCCCC1
Decide: I or II , by lowest recorded IC50. Kindly give the label for the entry you pick.
II
(II: 25 nM, I: 47 nM)

---

Record set: IC50 | Sodium-dependent noradrenaline transporter (Homo sapiens, UniProt P23975) | literature, multiple sources.
result type: IC50 (nM)

O=C1NCC(c2ccc(Cl)c(Cl)c2)C1c1ccc(Cl)c(Cl)c1 (configuration not stated); 990

P: CNC[C@@H](O)[C@H](c1cccc(F)c1)n1ccc2cccc(Br)c21
Q: CC(C)C(=O)N(Cc1ccccc1-c1ccccc1)[C@H]1CCNC1
R: COc1ccc(CC(C)(C)NCC(O)COc2ccccc2C#N)cc1 (racemic)
S: NC[C@@H]1C[C@@]1(C(=O)N1CCc2sccc2C1)c1ccc2c(c1)OCO2
Given 4 molecules, produce a descending ranking by IC50. In your reply, arrange the labels in the requested order.
R, P, Q, S
(R: 300 nM, P: 21 nM, Q: 14 nM, S: 9.4 nM)

---

pIC50: −log10 of the molar value.
Record set: pIC50 | UniProt P23975 | literature, multiple sources.
result type: pIC50

CNCC[C@H](c1cc(F)cc(F)c1)N1C(=O)C(C)(C)c2cccc(F)c21; 8.22
CNC[C@@H](O)[C@H](c1cccc(F)c1)n1ccc2cc(F)ccc21; 7.66
OC1(C(CN2CCNCC2)c2csc(Cl)c2)CCCCC1 (centres undefined); 7.00

A: OC1(C(CN2CCNCC2)c2ccsc2Cl)CCCCC1 (centres undefined)
B: Fc1cc(C(CC2CNC2)Oc2ccccc2Cl)ccc1Cl (centres undefined)
C: CNCC[C@H](c1ccccc1)n1c(=O)n(C2CCCC2)c2ccccc21
D: CC(C)(C)C(=O)N(Cc1ccc(Cl)cc1Cl)[C@H]1CCNC1
E: CNCC[C@H](c1cc(F)cc(Cl)c1)N1C(=O)C(C)(C)c2cccc(F)c21
Given 5 compounds, produce a descending ranking by pIC50. In your reply, arrange the labels in the requested order.
E, B, D, C, A

---

Record set: IC50 | Sodium-dependent noradrenaline transporter (Homo sapiens) | literature, multiple sources.

The following molecules have reported results that may help.
CNCC[C@@H](c1ccccc1)N1C(=O)C2(CCCCC2)c2ccccc21; > 3 µM
OC1(C(CN2CCNCC2)c2cc3ccccc3s2)CCCCC1 (centres undefined); 0.55 µM
COc1ccc(C2=NNC(=O)[C@@H]3CC=CC[C@H]23)cc1OC (relative stereo); > 100 µM

// returns reported IC50 for input C=CCN(CC)C(=O)C1(c2ccccc2)C(CN)C1c1ccccc1 (racemic)
> 10 µM

---

pIC50: −log10 of the molar value.
Record set: pIC50 | Sodium-dependent noradrenaline transporter (Homo sapiens, UniProt P23975) | literature, multiple sources.
result type: pIC50

The following compounds have reported results that may help.
CNCC[C@@H](c1ccccc1)n1c(=O)n(C(C)C)c2cccc(F)c21; 5.98
CNCCCC1Cc2cc(F)ccc2N(c2c(F)cccc2F)S1(=O)=O (single isomer, unassigned); 7.60
CC(C)CC(=O)N(Cc1cccc(Cl)c1Cl)[C@H]1CCNC1; 7.21
CNC[C@@H](O)[C@H](c1cccc(C(F)(F)F)c1)n1ccc2ccccc21; 7.27

P: COc1cc(OC(C)C)cc(S(=O)(=O)c2ccc3c(c2)O[C@H]2CNCC[C@@H]32)c1.Cl (single isomer, unassigned; enantiomer 1)
Q: O=C1NCC(c2ccc(Cl)c(Cl)c2)C1c1ccc2ccccc2c1 (configuration not stated)
R: CCn1c(=O)n([C@H](CCNC)c2cccc(F)c2)c2c(F)cccc21
S: CN1CCN(CC(c2cccc(C(F)(F)F)c2)C2(O)CCCCC2)CC1 (configuration not stated)
T: CNCC[C@H](c1ccccc1)N1C(=O)C(C)(C)c2ccccc21
Given 5 compounds, produce a descending ranking by pIC50. In your reply, arrange the labels in the requested order.
T, R, S, Q, P

---

Record set: IC50 | UniProt P23975 | literature, multiple sources.
result type: IC50 (nM)

The following compounds have reported results that may help.
OC1(C(CN2CCNCC2)c2cccc(OC(F)(F)F)c2)CCCCC1 (stereo unspecified); 284
O=C1NCC(c2ccccc2Cl)C1c1ccc(Cl)cc1 (stereo unspecified); 7620
CC(C)(Cc1ccc2ccccc2c1)NC[C@@H](O)COc1ccccc1C#N; 3
CNC[C@@H](O)[C@H](c1cccc(Cl)c1)n1ccc2ccccc21; 16
COc1ccc(C2=NN(CCCCCNCC[C@H](Oc3cccc4ccccc34)c3cccs3)C(=O)[C@@H]3CC=CC[C@H]23)cc1OC; 2190

1: CN1CCN(CC(c2ccc(OC(F)(F)F)cc2)C2(O)CCCCC2)CC1 (stereo unspecified)
2: CNCC[C@H](c1ccccc1)N1C(=O)C(C)(C)c2cccc(F)c21
3: CCN(CC)C(=O)[C@@]1(c2ccc3sccc3c2)C[C@H]1CN
Arrange items by their IC50 values in increasing order. In your reply, arrange the labels in the requested order.
3, 2, 1
